Biological target: Tyrosine-protein kinase SYK (Homo sapiens, UniProt P43405)
Assay: Syk Kinase Activity Inhibitiory Experiment: Measure of SYK protein kinase activity was carried out by using the Caliper mobility shift assay. The compound was dissolved with DMSO and diluted with kinase buffer (20 mM HEPES pH 7.5, 0.01% Triton X-100, 5 mM MgCl2, 1 mM MnCl2, 2 mM DTT), and 5 μl of 5 times the final concentration of the compounds (10% DMSO) were added to 384 well plate. 10 μl of 2.5 fold enzyme (with SYK) solution was added and incubated at room temperature for 10 minutes, then 10 of 2.5 fold substrate (Peptide FAM-P22) and ATP) solution was added. The mixture was incubated for 30 minutes under 28° C., and 25 μl of stop buffer (100 mM HEPES pH 7.5, 0.015% Brij-35, 0.2% Coating Reagent #3, 50 mM EDTA) was added to terminate the reaction. Conversion rate data was read by Caliper EZ Reader II (Caliper Life Sciences). Conversion rate was converted to inhibition rate data (% inhibition rate=(max−conversion rate)/(max−min)*100). The max refers to the conversion rate of the DMSO control, and min refers to the conversion rate of the enzyme-free control. The curve was drawn with the compound concentration and inhibition rate as the horizontal and vertical coordinates, and the curve was fitted with the XLFit excel add-in version 4.3.1 Software, and IC50 was calculated.
Measured Endpoint: IC50

// IC50 value for O=C(CCCCCCNC(=O)c1cccc(-c2cn3ccnc3c(Nc3ccc(N4CCOCC4)cc3)n2)c1)NO : < 500 nM

---

Target: Histone deacetylase 1 (Homo sapiens, UniProt Q13547)
Sequence (Q13547 whole entry): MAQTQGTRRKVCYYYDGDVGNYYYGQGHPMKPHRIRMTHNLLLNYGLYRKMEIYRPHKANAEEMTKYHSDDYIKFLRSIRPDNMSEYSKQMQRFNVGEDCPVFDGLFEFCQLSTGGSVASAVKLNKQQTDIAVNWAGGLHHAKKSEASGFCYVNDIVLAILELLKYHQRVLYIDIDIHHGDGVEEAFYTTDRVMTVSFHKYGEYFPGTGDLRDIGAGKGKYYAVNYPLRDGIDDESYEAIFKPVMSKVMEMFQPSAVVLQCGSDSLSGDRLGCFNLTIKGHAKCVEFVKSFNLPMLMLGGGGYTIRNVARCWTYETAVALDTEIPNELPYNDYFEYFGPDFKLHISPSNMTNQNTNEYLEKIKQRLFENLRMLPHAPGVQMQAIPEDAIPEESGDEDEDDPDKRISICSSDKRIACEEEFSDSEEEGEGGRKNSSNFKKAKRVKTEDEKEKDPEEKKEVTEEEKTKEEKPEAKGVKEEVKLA
Experiment: HDAC-1 and HDAC-6 Activity Inhibition Experiment: HDAC activity was measured by the Synergy MX Multi-Function Microplate Reader. The compounds were dissolved with DMSO, and transferred to a 384 well test plate using an Echo non-contact nanoscale sonic pipetting system. 15 μl of enzyme (HDAC1/HDAC6, respectively) solvent was added, and incubated at room temperature for 15 minutes, then 10 μl of substrate (trypsin and Ac-peptide) solution was added. Fluorescence intensity signal was read directly on Synergy MX (fluorescence excitation 355 nm, emission fluorescence 460 nm) after cultivated at room temperature for 60 minutes. Fluorescence intensity signal was convented into inhibition rate data (% inhibition rate=(max−fluorescence intensity)/(max−min)*100). The max refers to the fluorescence intensity of the DMSO control, and min refers to the fluorescence intensity of the enzyme-free control. The curve was drawn with the compound concentration and inhibition rate as the horizontal and vertical coordinates, and the curve was fitted with the GraphPad Prism V5.0 Software, and IC50 was calculated.
Measured Endpoint: IC50

Hey, Histone deacetylase 1 (Homo sapiens, UniProt Q13547) data for O=C(CCCCCCNC(=O)c1cccc(-c2cn3ccnc3c(Nc3ccc(N4CCOCC4)cc3)n2)c1)NO : IC50 came out at < 100 nM
